Target Or System: mnm-2 (C10A4.8) (Caenorhabditis elegans)
Sequence: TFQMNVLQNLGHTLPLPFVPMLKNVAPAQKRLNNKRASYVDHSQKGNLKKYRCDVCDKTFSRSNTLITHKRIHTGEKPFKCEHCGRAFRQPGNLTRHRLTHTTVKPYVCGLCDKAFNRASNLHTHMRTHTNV
Measure Name: binding signal (PBM E-score (-0.5 to 0.5))
The answer should be a number; do not append a unit.

# example entries with known answers
Item Sequence | Reported Measurement
GCGCATCA (double strand) [8-mer GCGCATCA] | 0.47
GCGCATCC (double strand) [8-mer GCGCATCC] | 0.487

stdin: Identify measured binding signal (PBM E-score (-0.5 to 0.5)) obtained with mnm-2 (C10A4.8) (Caenorhabditis elegans) for GCGGATCC (double strand) [8-mer GCGGATCC] .
stdout: 0.472

stdin: Identify measured binding signal (PBM E-score (-0.5 to 0.5)) obtained with mnm-2 (C10A4.8) (Caenorhabditis elegans) for GCACATCC (double strand) [8-mer GCACATCC] .
stdout: 0.46

stdin: Identify measured binding signal (PBM E-score (-0.5 to 0.5)) obtained with mnm-2 (C10A4.8) (Caenorhabditis elegans) for GATGCGCA (double strand) [8-mer GATGCGCA] .
stdout: 0.484

----------
Target Or System: med-2 (K04C2.6) (Caenorhabditis elegans) (UniProt G5EF25)
Sequence: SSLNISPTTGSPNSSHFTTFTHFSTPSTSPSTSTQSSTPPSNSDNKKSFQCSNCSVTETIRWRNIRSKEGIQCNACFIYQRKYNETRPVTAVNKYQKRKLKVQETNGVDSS
Measure Name: binding signal (PBM E-score (-0.5 to 0.5))
The answer should be a number; do not append a unit.

# example entries with known answers
Item Sequence | Reported Measurement
AGTATCCA (double strand) [8-mer AGTATCCA] | 0.495
GGTATACC (double strand) [8-mer GGTATACC] | 0.496

stdin: Kindly indicate its recorded binding signal (PBM E-score (-0.5 to 0.5)). Item: GTATACCA (double strand) [8-mer GTATACCA]
stdout: 0.495

stdin: Kindly indicate its recorded binding signal (PBM E-score (-0.5 to 0.5)). Item: CGGTATAC (double strand) [8-mer CGGTATAC]
stdout: 0.495

----------
Listing of recorded binding signal (PBM E-score (-0.5 to 0.5)) by entry.
Target Or System: Y61A9LA.9 (Y61A9LA.9) (Caenorhabditis elegans) (UniProt Q9N312)
Sequence: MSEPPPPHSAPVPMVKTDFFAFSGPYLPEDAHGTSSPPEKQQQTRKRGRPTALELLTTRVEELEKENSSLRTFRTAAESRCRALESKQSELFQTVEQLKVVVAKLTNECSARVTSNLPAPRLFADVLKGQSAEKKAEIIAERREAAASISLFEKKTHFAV
The answer should be a number; do not append a unit.

Item Sequence | Reported Measurement
AATATTAA (double strand) [8-mer AATATTAA] | 0.455

stdin: Kindly indicate its recorded binding signal (PBM E-score (-0.5 to 0.5)). Item: AAAATAAT (double strand) [8-mer AAAATAAT]
stdout: 0.451

stdin: Kindly indicate its recorded binding signal (PBM E-score (-0.5 to 0.5)). Item: AATTAATT (double strand) [8-mer AATTAATT]
stdout: 0.454
